Test system: cystinotic human fibroblasts
Experiment: Cystine depletion assay
Assay type: cell-based
Settings: Homo sapiens, Fibroblast, 1 h; Table 5; relative to cystine depletion by cysteamine (100%) at a similar concentration; read-out: Cystine Depletion (%) Mean Value
The following molecules are listed with their measured Emax values.
The number alone won't do; follow it with the unit.

Use these answered entries as a reference point.
# MOLECULE, RESULT
data = [
    ("OCC1(S)CCCNC1 (centres unmarked)", "14%"),
    ("CC(=O)SC1CCNCC1", "75%"),
    ("C1CNC[C@H](SS[C@@H]2CCCNC2)C1", "121%"),
]

Data request: What does the record list as Emax for N[C@H]1C[C@@H](SS[C@H]2C[C@@H](N)C2)C1 ?
Data returned: 3%

Data request: Item under review: NCCCNCCS . Reported Emax?
Data returned: 36%

Data request: For OCCC1(S)CNC1 , what is its reported Emax?
Data returned: 0%

Data request: Emax lookup needed for CNC1CC(S)C1 (centres unmarked) , thanks.
Data returned: 55%

Data request: Consider the molecule N[C@H]1C[C@@H](S)C1 and give its measured Emax.
Data returned: 77%

Data request: For SCC1CCCNC1 (centres unmarked) , what is its reported Emax?
Data returned: 31%

Data request: For the molecule shown here, CC1(S)CCNC1 (centres unmarked) , give the reported Emax.
Data returned: 58%

Data request: Which Emax value belongs to SCC1CNC1 ?
Data returned: 11%

---

Assay: Cystine reactivity assay
Details: Table 5; 30° C.; percentage of 3 mM cysteamine
Measured Cystine Reactivity Assay (30° C.) (%) Mean Value of individual entries

Reference set (3 entries):
# COMPOUND, RESULT
records = [
    ("SC1CNC1", ">90%"),
    ("CNC1CC(S)C1 (centres unmarked)", "<50%"),
    ("C[C@H](CS)C(=O)N1CCC[C@H]1C(=O)O", "<50%"),
]

Data request: I'd like to know its Cystine Reactivity Assay (30° C.) (%) Mean Value. The compound in question is OCCC1(S)CNC1
Data returned: >90%

---

Molecular target: human recombinant ADO (Homo sapiens)
Sequence (Q96SZ5 1-270): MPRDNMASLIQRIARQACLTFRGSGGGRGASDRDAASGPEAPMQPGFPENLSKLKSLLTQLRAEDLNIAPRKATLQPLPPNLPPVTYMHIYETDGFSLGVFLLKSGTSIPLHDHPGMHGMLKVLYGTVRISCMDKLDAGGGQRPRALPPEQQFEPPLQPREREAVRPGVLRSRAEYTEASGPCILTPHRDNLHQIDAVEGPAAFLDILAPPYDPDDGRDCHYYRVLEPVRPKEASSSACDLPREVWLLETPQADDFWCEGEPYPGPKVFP
Type: in vitro ADME
Conditions: human, 15 mM
Catalogue of ADO metabolism readings, one per entry.
Expressed in %, but write only the number.

Sample answers from the record:
# COMPOUND, ADO metabolism, %
measured = [
    ("CN1CCC(S)CC1", 1),
    ("SC1CCNCC1", 2),
    ("CC(C)(S)CN", 14),
]

With those in mind, consider the next compound.
Data request: // returns reported ADO metabolism for input NC1(CS)CC1
Data returned: 14

---

Test system: cystinotic human fibroblasts
Assay: Cystine depletion assay
Type: cell-based
Details: Homo sapiens, Fibroblast, 1 h; Table 5; relative to cystine depletion by cysteamine (100%) at a similar concentration; read-out: Cystine Depletion (%) Mean Value
Recorded Emax by entry
Report the value in % with no unit label.

Data request: Give recorded Emax with cystinotic human fibroblasts for the following compound: Oc1ccc2ccccc2c1SSc1c(O)ccc2ccccc12
Data returned: 14

Data request: Query for cystinotic human fibroblasts: what Emax does the record show for N[C@H]1C[C@H](S)C1 ?
Data returned: 78

Data request: Request: Emax, test system cystinotic human fibroblasts, entry CC1(SSC2(C)CCNCC2)CCNCC1
Data returned: 11

---

Quick list: Cystine Reactivity per entry.
Test: Cystine reactivity assay
Design: unit not given here
Details: Tables 1-3

Below, 2 compounds whose answers are already recorded.
# COMPOUND, RESULT
data = [
    ("SCCN1CCCC1", 12392),
    ("CN1CCC(S)CC1", 7332),
]

Continue with the compound presented below.
Data request: Cystine Reactivity lookup needed for NCCS , thanks.
Data returned: 6543

---

System: St-HdhQ^111/111 cells
Assay: Glutamate-induced neuronal excitotoxicity assay
Assay type: cell-based
Conditions: STHdhQ111; 10 μM; 6 mM L-glutamate 24 hours; % of effect of 100 μM cysteamine; read-out: HdhQ^111/111 cell % survival (mean ± STD) Test Conc. 10 μM
Listed here are molecules together with their documented viability at 10 µM.
Give just the number in %; leave the unit off.

Study these solved cases before continuing.
# MOLECULE, METRIC_NAME, UNITS_SYMBOL, NUMBER
rows = [
    ("S[C@H]1CCCNC1 [Compound 42247]", "viability at 10 µM", "%", 5),
    ("S[C@H]1CCNC1 [Compound 42616]", "viability at 10 µM", "%", 5),
]

Data request: Checklist item: viability at 10 µM tested on St-HdhQ^111/111 cells, entry CC1(S)CCCNC1 (stereo not drawn) [Compound 42388] , value?
Data returned: 5

---

Examples of molecules with documented Emax follow.
Tested on: cystinotic human fibroblasts
Test: Cystine depletion assay
Format: cell-based
Settings: Homo sapiens, Fibroblast, 1 h; Table 5; relative to cystine depletion by cysteamine (100%) at a similar concentration; read-out: Cystine Depletion (%) Mean Value
Please give a number only; it is taken to be in %.

Answered examples (5):
# MOLECULE, Emax (%)
rows = [
    ("Cn1cc[nH]c1=S", 10),
    ("C[C@]1(S)CCCNC1", 69),
    ("OC1(CS)CCNCC1", 11),
    ("CC1(S)CC(N)C1 (stereo not drawn)", 70),
    ("C[C@@]1(S)CCCNC1", 59),
]

Data request: Lab note: need Emax for CC(CS)Cc1ccccc1 (stereo not drawn) on cystinotic human fibroblasts, anyone have it?
Data returned: 19

Data request: Request body: readout Emax, system cystinotic human fibroblasts, query FC1(F)CN[C@H](CS)C1 . Return the value.
Data returned: 27

Data request: Query Emax on cystinotic human fibroblasts for CC1(S)CCNCC1
Data returned: 83

Data request: Please provide the recorded Emax for O=c1[nH][se]c2ccccc12 , tested on cystinotic human fibroblasts.
Data returned: 31

Data request: Item: C[C@H](CS)C(=O)N1CCC[C@H]1C(=O)O Test system: cystinotic human fibroblasts Read-out: Emax Value: ?
Data returned: 23

Data request: Checklist item: Emax tested on cystinotic human fibroblasts, entry O=S(=O)([O-])CCS.[Na+] , value?
Data returned: 16

Data request: Provide value of Emax for this record tested with cystinotic human fibroblasts: SC[C@@H]1CCCCN1
Data returned: 156

Data request: Query for cystinotic human fibroblasts: what Emax does the record show for CCN1CCCC1 ?
Data returned: 9

Data request: Record N[C@H]1C[C@H](SS[C@H]2C[C@H](N)C2)C1 : what is its Emax with cystinotic human fibroblasts?
Data returned: 27

Data request: Missing value: Emax, cystinotic human fibroblasts, entry SC[C@H]1CCCCN1 . Fill in?
Data returned: 104

---

Assay: Cystine reactivity assay
Settings: Table 5; 30° C.; percentage of 3 mM cysteamine
Overview of recorded Cystine Reactivity Assay (30° C.) (%) Mean Value for various molecules

Before answering, review these 5 worked examples.
# MOLECULE, RESULT
rows = [
    ("O=S(=O)([O-])CCS.[Na+]", "<50%"),
    ("SC[C@H]1CCCCN1", ">90%"),
    ("N[C@H]1C[C@H](S)C1", "50-90%"),
    ("SCC1CNC1", ">90%"),
    ("CC1(S)CCNCC1", "<50%"),
]

Data request: Which Cystine Reactivity Assay (30° C.) (%) Mean Value is reported for this molecule? CCN(CC)C(=S)SSC(=S)N(CC)CC
Data returned: <50%

Data request: Entry FC1(F)CN[C@H](CS)C1 : reported Cystine Reactivity Assay (30° C.) (%) Mean Value = ?
Data returned: >90%

Data request: Entry C[C@]1(S)CCCNC1 : reported Cystine Reactivity Assay (30° C.) (%) Mean Value = ?
Data returned: 50-90%

Data request: Which Cystine Reactivity Assay (30° C.) (%) Mean Value is listed for CN[C@H]1C[C@H](S)C1 ?
Data returned: <50%

Data request: Which Cystine Reactivity Assay (30° C.) (%) Mean Value is listed for FC1(F)CN[C@@H](CS)C1 ?
Data returned: >90%

---

Experiment: Cystine reactivity assay
Details: Table 5; 30° C.; percentage of 3 mM cysteamine
METRIC_NAME: Cystine Reactivity Assay (30° C.) (%) Mean Value

# COMPOUND, RESULT
records = [
    ("CS(=O)(=O)N1CCNC(CS)C1 (stereo not drawn) [Compound 145694]", ">90%"),
    ("N[C@H]1C[C@@H](CS)C1 [Compound 145587]", ">90%"),
    ("CC1(S)CCCNC1 (stereo not drawn) [Compound 42388]", ">90%"),
    ("Nc1nc2[nH]cnc2c(=S)[nH]1 [Compound 1141]", "<50%"),
    ("SCC1COCCN1 (stereo not drawn) [Compound 145591]", "50-90%"),
]

Data request: Given the entry SC[C@@H]1CCCN1 (stereo in doubt) [Compound 42210] , report its measured Cystine Reactivity Assay (30° C.) (%) Mean Value.
Data returned: >90%

Data request: # lookup: Cystine Reactivity Assay (30° C.) (%) Mean Value of CC(C)(C)N1CCC(S)CC1 [Compound 145584]
Data returned: >90%

Data request: Given the entry SC[C@@H]1CCCCN1 [Compound 145592] , report its measured Cystine Reactivity Assay (30° C.) (%) Mean Value.
Data returned: >90%

Data request: Consider the compound OC1(CS)CCNCC1 [Compound 145610] and give its measured Cystine Reactivity Assay (30° C.) (%) Mean Value.
Data returned: <50%

Cited source: patent US10906904B2
